- tgt: human CB2 receptor (Homo sapiens, UniProt P34972)
- Construct: beta-galactosidase fragment (the cell line's name says 'bgal'; own knowledge: PathHunter enzyme-fragment-complementation lines carry a small beta-gal fragment fused to the receptor's C-terminus); host or cells: CHO-K1 (CHOK1hCB2_bgal), membranes
- Sequence (P34972 whole entry, the tested form may be a part): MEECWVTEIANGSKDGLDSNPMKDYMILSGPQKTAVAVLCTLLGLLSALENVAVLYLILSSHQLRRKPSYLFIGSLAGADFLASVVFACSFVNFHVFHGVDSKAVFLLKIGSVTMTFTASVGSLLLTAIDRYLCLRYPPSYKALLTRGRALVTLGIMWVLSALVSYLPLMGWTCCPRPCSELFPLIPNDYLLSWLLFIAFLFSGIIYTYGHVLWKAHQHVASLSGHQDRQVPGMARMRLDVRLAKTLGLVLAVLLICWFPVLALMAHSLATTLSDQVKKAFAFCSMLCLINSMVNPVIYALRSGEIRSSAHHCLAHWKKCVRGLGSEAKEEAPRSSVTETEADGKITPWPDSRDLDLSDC
- protocolSummary: [3H]CP55940 displacement assay
- Assay type: binding
- condition: 10 μM of the compound; [3H]CP55940, CHOK1hCB2_bgal membranes
Quick reference: % displacement of the radioligand of the listed items.
Just the number please, in %, no unit attached.

INSERT INTO results (compound, reportedresult) VALUES
  ('CCC(C)(C)C1CCC(NC(=O)c2cc(S(=O)(=O)N3CCOCC3)ccc2C)CC1 (stereo not drawn)', 29);

The compound listed as "CC1(CN2CCOCC2)CCN(CC(=O)N2CCc3sccc3C2)CC1" shows % displacement of the radioligand equal to 18

The compound listed as CC1(C)C2CCC1(C)C(NC(=O)C1CCN(S(=O)(=O)c3ccc(F)c(F)c3)CC1)C2 (stereo not drawn) shows % displacement of the radioligand equal to 26

----------
- tgt: human CB2 receptor (Homo sapiens, UniProt P34972)
- Construct: beta-galactosidase fragment (the cell line's name says 'bgal'; own knowledge: PathHunter enzyme-fragment-complementation lines carry a small beta-gal fragment fused to the receptor's C-terminus); host or cells: CHO-K1 (CHOK1hCB2_bgal), membranes
- protocolSummary: [3H]CP55940 displacement assay
- Assay type: binding
- condition: 10 μM of the compound; [3H]CP55940, CHOK1hCB2_bgal membranes
outcomeMeasure: % displacement of the radioligand (%)
Just the number please, in %, no unit attached.

# example entries with known answers
INSERT INTO measurements (compound, tgt, readoutunit, reportedresult) VALUES
  ('COc1ccc2c(c1)c(C(=O)N(C)CC(C)OC)c(C)n2C1CC1 (centres unmarked)', 'human CB2 receptor (Homo sapiens, UniProt P34972)', '%', 0),
  ('Cc1nn(-c2ccccc2)c2sc(C(=O)NC34CC5CC(CC(C5)C3)C4)cc12', 'human CB2 receptor (Homo sapiens, UniProt P34972)', '%', 38),
  ('CC(C)C(NC(=O)CN1CCN(c2nccn2C)CC1)c1ccc2c(c1)OCCCO2 (centres unmarked)', 'human CB2 receptor (Homo sapiens, UniProt P34972)', '%', 3),
  ('CCC(NC(=O)c1cccc(S(=O)(=O)N2CCOCC2)c1)C12CC3CC(CC(C3)C1)C2 (centres unmarked)', 'human CB2 receptor (Homo sapiens, UniProt P34972)', '%', 16),
  ('CCn1cc(C(=O)NCC2(N3CCOCC3)CCCCC2)c(=O)c2ccc(C)nc21', 'human CB2 receptor (Homo sapiens, UniProt P34972)', '%', 30);

Summary line: CC1(C)C2CC=C(/C=N/NC(=O)CCc3ccc(S(=O)(=O)N4CCOCC4)cc3)C1C2 (centres unmarked) , human CB2 receptor (Homo sapiens, UniProt P34972), reported % displacement of the radioligand = 0

Summary line: CCN(CC)c1ccc(S(=O)(=O)N2CCOCC2)cc1NS(=O)(=O)CC12CCC(CC1=O)C2(C)C (centres unmarked) , human CB2 receptor (Homo sapiens, UniProt P34972), reported % displacement of the radioligand = 7

Summary line: "COc1ccc(C=C(C(=O)NC2CCCCC2)C(=O)NC2CCCCC2)cc1OC" , human CB2 receptor (Homo sapiens, UniProt P34972), reported % displacement of the radioligand = 38
